# METHOD_NOTES: Plasma protein binding in human serum by equilibrium dialysis method
# Type: ADME, cell-free
# EXPERIMENTAL_CONDITIONS: read-out: PPB (converted)
MEASUREMENT_TYPE: fraction unbound

1. CSc1cccc(C2(C#N)CCN(Cc3cc(C(=O)O)c(=O)n4ccccc34)CC2)n1	0.012
2. COc1ccnc(C2(C#N)CCN(Cc3cc(C(=O)O)c(=O)n4ccccc34)CC2)c1	0.217
3. CCc1ccnc(C2(C#N)CCN(Cc3cc(C(=O)O)c(=O)n4ccccc34)CC2)c1	0.134
4. N#CC1(c2cccnc2)CCN(Cc2cc(C(=O)O)c(=O)n3ccccc23)CC1	0.361
5. Cc1cccc(C2(C#N)CCN(Cc3cc(C(=O)O)c(=O)n4ccccc34)CC2)n1	0.158
6. N#CC1(c2cccc(Cl)n2)CCN(Cc2cc(C(=O)O)c(=O)n3ccccc23)CC1	0.071
7. Cc1ccnc(C2(C#N)CCN(Cc3cc(C(=O)O)c(=O)n4ccccc34)CC2)c1	0.235
8. N#CC1(c2ccccc2)CCN(Cc2cc(C(=O)O)c(=O)n3ccccc23)CC1	0.101
9. Cc1ccccc1C1(C#N)CCN(Cc2cc(C(=O)O)c(=O)n3ccccc23)CC1	0.038
10. Cc1ccc(C2(C#N)CCN(Cc3cc(C(=O)O)c(=O)n4ccccc34)CC2)nc1	0.175
11. N#CC1(c2ccccc2F)CCN(Cc2cc(C(=O)O)c(=O)n3ccccc23)CC1	0.055
12. Cc1cccc(C2(C#N)CCN(Cc3cc(C(=O)O)c(=O)n4ccccc34)CC2)c1	0.048
13. N#CC1(c2ccccn2)CCN(Cc2cc(C(=O)O)c(=O)n3ccccc23)CC1 [MSD-M1PAM]	0.291

====

# METHOD_NOTES: Clearance in rhesus monkey
# Format: ADME, organism-based, Macaca mulatta
# EXPERIMENTAL_CONDITIONS: in vivo
MEASUREMENT_TYPE: clearance (mL/min/kg)

1) N#CC1(c2ccccn2)CCN(Cc2cc(C(=O)O)c(=O)n3ccccc23)CC1	17

====

# METHOD_NOTES: Clearance in dog at 3 mg/kg, po and 1 mg/kg, iv
# Type: ADME, organism-based, Canis lupus familiaris
# EXPERIMENTAL_CONDITIONS: in vivo
Catalogue of compounds with associated clearance
MEASUREMENT_TYPE: clearance (mL/min/kg)

1. Cc1ccnc(C2(C#N)CCN(Cc3cc(C(=O)O)c(=O)n4ccccc34)CC2)c1	10.1
2. N#CC1(c2ccccn2)CCN(Cc2cc(C(=O)O)c(=O)n3ccccc23)CC1 [MSD-M1PAM]	7.4

====

Catalogue of compounds with associated fraction unbound
# METHOD_NOTES: Plasma protein binding in rat serum by equilibrium dialysis method
# Type: ADME, cell-free
# EXPERIMENTAL_CONDITIONS: read-out: PPB (converted)
MEASUREMENT_TYPE: fraction unbound

1) CSc1cccc(C2(C#N)CCN(Cc3cc(C(=O)O)c(=O)n4ccccc34)CC2)n1	0.057
2) N#CC1(c2cccnc2)CCN(Cc2cc(C(=O)O)c(=O)n3ccccc23)CC1	0.509
3) CCc1ccnc(C2(C#N)CCN(Cc3cc(C(=O)O)c(=O)n4ccccc34)CC2)c1	0.272
4) Cc1cccc(C2(C#N)CCN(Cc3cc(C(=O)O)c(=O)n4ccccc34)CC2)n1	0.249
